Please provide measured MIC for the entries that follow.
Test system: Aspergillus niger
ASSAY COMMENT: Antifungal activity against Aspergillus niger IMI17454 strain.
Assay type: functional
MEASUREMENT PARAMETERS: Aspergillus niger; read-out: MIC
// units = µM; emit number, no label

Recorded MIC (molecule CC(C)CCn1cc(NC(=O)c2cc(NC=O)cn2C)cc1C(=O)Nc1cc(C(=O)NCCCN2CCN(C)CC2)n(C)c1 ): 140

Recorded MIC (molecule CC(C)CCn1cc(NC(=O)c2cc(NC(=O)c3cc([N+](=O)[O-])cn3C)cn2C)cc1C(=O)Nc1cc(C(=O)NCCCN(C)C)n(C)c1 ): 15.8

Recorded MIC (molecule CC(=O)Nc1nc(C(=O)Nc2cc(C(=O)Nc3cc(C(=O)NCCCN(C)C)n(C)c3)n(C)c2)c(C(C)C)s1 ): 149

Recorded MIC (molecule COc1cccc(C(=O)Nc2cc(C(=O)Nc3cc(C(=O)Nc4cc(C(=O)NCCCN(C)C)n(C)c4)n(C)c3)n(C)c2)c1 ): 140
